# credit: ChEMBL document CHEMBL4825662

System: Respiratory syncytial virus
Assay Overview: Antiviral activity against Respiratory syncytial virus Memphis 37b infected in human HEp2 cells treated over 10 serial passages by plaque assay
Assay type: functional, organism-based
Test Settings: HEp-2
Readout: EC50 (nM)
State just the number; it will be interpreted in nM.

[ask] Write down EC50 measured for item `NCc1ccc2c(c1)nc(CN1C(=O)C3(CC3)c3ccc(F)cc31)n2CCCC(F)(F)F`
[reply] 89

###

Assay Overview: Tmax in CD1 mouse at 10 mg/kg, po measured after 0.083 to 24 hrs by UHPLC-TOF method
Format: ADME, organism-based
Test Settings: in vivo, time 0.083-24 hrs
Documented Tmax across a set of molecules
Give the value in h but do not write h after it.

{"Molecule": "CC(C)CCn1c(CN2C(=O)C3(CC3)c3cccnc32)nc2cc(CN)ccc21", "Scale Unit": "h", "Observed Value": 2}
{"Molecule": "NCc1ccc2c(c1)nc(CN1C(=O)C3(CC3)c3ccc(F)cc31)n2C1CCOCC1", "Scale Unit": "h", "Observed Value": 1.7}
{"Molecule": "NCc1ccc2c(c1)nc(CN1C(=O)C3(CC3)c3ccc(F)cc31)n2CCCC(F)(F)F", "Scale Unit": "h", "Observed Value": 2}

Now take the following molecule into account.
[ask] In one line, give reported Tmax of the entry NCc1ccc2c(c1)nc(CN1C(=O)C3(CC3)c3ccc(F)cc31)n2C1CCC(O)CC1 (centres undefined) .
[reply] 0.1

###

Assay Overview: Cmax in CD1 mouse at 10 mg/kg, po measured after 0.083 to 24 hrs by UHPLC-TOF method
Type: ADME, organism-based
Set-up: route oral, time 0.083-24 hrs, dose 10 mg/kg
Test Settings: in vivo
Catalogue of Cmax readings, one per entry.
Answer format: numeric, ng/mL implied, no suffix.

Below, each entry is followed by its recorded Cmax result.
{"Compound": "NCc1ccc2c(c1)nc(CN1C(=O)C3(CC3)c3ccc(F)cc31)n2CCCC(F)(F)F [SISUNATOVIR]", "Observed Value": 224}
{"Compound": "NCc1ccc2c(c1)nc(CN1C(=O)C3(CC3)c3ccc(F)cc31)n2C1CCC(O)CC1 (centres undefined)", "Observed Value": 47.8}
{"Compound": "NCc1ccc2c(c1)nc(CN1C(=O)C3(CC3)c3ccc(F)cc31)n2C1CCOCC1", "Observed Value": 450}

Next, consider the following compound.
[ask] Give reported Cmax value for `CC(C)CCn1c(CN2C(=O)C3(CC3)c3cccnc32)nc2cc(CN)ccc21`
[reply] 200

###

Assay Overview: Volume of distribution at steady state in Beagle dog at 0.3 mg/kg, iv measured after 0.03 to 24 hrs by UHPLC-TOF method
Type: ADME, organism-based, Canis lupus familiaris
Test Settings: in vivo, time 0.03-24 hrs, read-out: Vdss
Readout: Vd (L/kg)
Quick reminder: number only, in L/kg, skip the unit.

[ask] Determine its reported Vd: `NCc1ccc2c(c1)nc(CN1C(=O)C3(CC3)c3ccc(F)cc31)n2CCCC(F)(F)F`
[reply] 17.6

###

Assay Overview: Tmax in Sprague-Dawley rat at 10 mg/kg, po measured after 0.02 to 24 hrs by UHPLC-TOF method
Format: ADME, organism-based
Test Settings: Sprague-Dawley, in vivo, time 0.02-24 hrs, read-out: Tmax
Readout: Tmax
Form entry: enter the amount, then its unit.

[ask] Supply Tmax value. Item: `NCc1ccc2c(c1)nc(CN1C(=O)C3(CC3)c3cccc(F)c31)n2CCCC(F)(F)F`
[reply] 2.1 h

###

Assay Overview: Cmax in Beagle dog at 3 mg/kg, po measured after 0.03 to 24 hrs by UHPLC-TOF method
Assay type: ADME, organism-based, Canis lupus familiaris
Design: route oral, dose 3 mg/kg, time 0.03-24 hrs
Test Settings: in vivo
Readout: Cmax (ng/mL)
Number in ng/mL, nothing else.

{"Smiles String": "NCc1ccc2c(c1)nc(CN1C(=O)C3(CC3)c3ccc(F)cc31)n2C1CCOCC1", "Cmax, ng/mL": 505}

[ask] Identify the reported Cmax for the following entry. `NCc1ccc2c(c1)nc(CN1C(=O)C3(CC3)c3ccc(F)cc31)n2CCCC(F)(F)F`
[reply] 82.4

###

Assay Overview: Oral bioavailability in Beagle dog at 3 mg/kg measured after 0.03 to 24 hrs by UHPLC-TOF method
Assay type: ADME, organism-based, Canis lupus familiaris
Test Settings: Beagle, in vivo, time 0.03-24 hrs
Readout: bioavailability (%)
Write the value in % as a bare number.

[ask] Report measured bioavailability; entry is NCc1ccc2c(c1)nc(CN1C(=O)C3(CC3)c3ccc(F)cc31)n2CCCC(F)(F)F [SISUNATOVIR]
[reply] 44.2

###

Assay Overview: Half life in CD1 mouse at 1 mg/kg, iv measured after 0.03 to 24 hrs by UHPLC-TOF method
Format: ADME, organism-based
Test Settings: in vivo, time 0.03-24 hrs
Readout: half-life (h)
Respond with the bare value in h.

[ask] Identify the reported half-life for the following entry. `NCc1ccc2c(c1)nc(CN1C(=O)C3(CC3)c3ccc(F)cc31)n2C1CCOCC1`
[reply] 1.7

[ask] Look up and state reported half-life for NCc1ccc2c(c1)nc(CN1C(=O)C3(CC3)c3ccc(F)cc31)n2CCCC(F)(F)F [SISUNATOVIR]
[reply] 4.2

[ask] Supply measured half-life of `NCc1ccc2c(c1)nc(CN1C(=O)C3(CC3)c3cccc(F)c31)n2CCCC(F)(F)F` in your reply.
[reply] 2.4

###

Assay Overview: Intrinsic clearance in Sprague-Dawley rat liver microsomes preincubated followed by NADPH addition and measured up to 45 mins by LC-MS/MS analysis
Type: ADME, Microsome
Readout: Microsomal intrinsic clearance (µL/min)
Please respond with the number in µL/min and leave the unit unwritten.

{"Smiles String": "NCc1ccc2c(c1)nc(CN1C(=O)C3(CC3)c3cccc(F)c31)n2CCCC(F)(F)F", "Observed Value": 0.7}

Shifting focus to the compound that follows.
[ask] Note Microsomal intrinsic clearance for the compound shown: `CC(C)CCn1c(CN2C(=O)C3(CC3)c3ccc(F)cc32)nc2cc(CN)ccc21`
[reply] 45

###

Tested on: Respiratory syncytial virus
Assay Overview: Antiviral activity against Respiratory syncytial virus Memphis 37b infected in human HEp2 cells by plaque assay
Assay type: functional, organism-based
Test Settings: HEp-2
Readout: pEC50
Just the number, please; pEC50 means minus log10 of the concentration in mol/L.

[ask] Please list pEC50 recorded for the compound NCc1ccc2c(c1)nc(CN1C(=O)C3(CC3)c3ccc(F)cc31)n2CCCC(F)(F)F [SISUNATOVIR]
[reply] 8.93

###

Assay Overview: Volume of distribution at steady state in CD1 mouse at 1 mg/kg, iv measured after 0.083 to 24 hrs by UHPLC-TOF method
Assay type: ADME, organism-based
Test Settings: in vivo, time 0.083-24 hrs, read-out: Vdss
# Fulfilled = Vd below 4 L/kg (exclusive); Not fulfilled = Vd at/above 4 L/kg

// below: answered compounds
{"Compound": "NCc1ccc2c(c1)nc(CN1C(=O)C3(CC3)c3cccc(F)c31)n2CCCC(F)(F)F", "Group": "Not fulfilled"}
{"Compound": "CC(C)CCn1c(CN2C(=O)C3(CC3)c3cccnc32)nc2cc(CN)ccc21", "Group": "Not fulfilled"}
{"Compound": "NCc1ccc2c(c1)nc(CN1C(=O)C3(CC3)c3ccc(F)cc31)n2C1CCC(O)CC1 (stereo not given)", "Group": "Fulfilled"}
{"Compound": "NCc1ccc2c(c1)nc(CN1C(=O)C3(CC3)c3ccc(F)cc31)n2C1CCOCC1", "Group": "Not fulfilled"}

Query compound follows.
[ask] Report whether reported Vd is lower than 4 L/kg (strictly) for `CC(C)CCn1c(CN2C(=O)C3(CC3)c3ccccc32)nc2cc(CN)ccc21`
[reply] Not fulfilled

###

Assay Overview: Protein binding in dog plasma assessed as unbound fraction at 5 uM by LC-MS/MS analysis based equilibrium dialysis method
Type: ADME, cell-free, Canis lupus familiaris
Entry flag: yes if fraction unbound at 5 µM reaches 0.2; no if it does not.

{"Smiles String": "NCc1ccc2c(c1)nc(CN1C(=O)C3(CC3)c3ccc(F)cc31)n2C1CCOCC1", "Group": "yes"}
{"Smiles String": "NCc1ccc2c(c1)nc(CN1C(=O)C3(CC3)c3ccc(F)cc31)n2CCCC(F)(F)F", "Group": "yes"}
{"Smiles String": "CC(C)CCn1c(CN2C(=O)C3(CC3)c3cccc(F)c32)nc2cc(CN)ccc21", "Group": "no"}

[ask] Hello, I need to know if `CC(C)CCn1c(CN2C(=O)C3(CC3)c3cc(F)ccc32)nc2cc(CN)ccc21` has measured fraction unbound at 5 µM not below 0.2. Thanks!
[reply] no

[ask] Could you please find out whether `CC(C)CCn1c(CN2C(=O)C3(CC3)c3ccc(F)cc32)nc2cc(CN)ccc21` has fraction unbound at 5 µM that meets 0.2 or exceeds it?
[reply] no

[ask] // inclusive: fraction unbound at 5 µM at least 0.2? input: `CC(C)CCn1c(CN2C(=O)C3(CC3)c3ccccc32)nc2cc(CN)ccc21`
[reply] no

[ask] Entry `CC(C)CCn1c(CN2C(=O)C3(CCCC3)c3ccncc32)nc2cc(CN)ccc21` : is its fraction unbound at 5 µM no less than 0.2?
[reply] no
